- Subject of test: T1, human CD8A-Fc (recombinant human CD8 alpha fused to Fc fragment of human IgG1) (human, UniProt P01732 22-182, limits assumed)
- T1 construct: SPR ligand, captured by goat anti-human Fc; also called hCD8A-Fc; recombinant CD8 alpha; not shown: linker with flag (and polyhistidine) tag and Fc fragment of human IgG1; depends on which of the two constructs was used
- Procedure details: SPR (ProteOn), captured hCD8A-Fc, heterogeneous ligand fit, higher affinity population

| Binder | Units text | kon |
| --- | --- | --- |
| P282DR9P1359_G7 (designed binder, FN3 domain (Centyrin); purified as His-tagged protein, tag not in the entry) LPAPKNLVVSRVTEDSARLSWTAPDAAFDSFAITYIEKEHIEDGEAIVLTVPGSERSYDLTGLKPGTEYWVPIWGVKGGANSWPLSAIFTT | M⁻¹ s⁻¹ | 276000 |
| P283AR9P1362_D6 (designed binder, FN3 domain (Centyrin); purified as His-tagged protein, tag not in the entry) LPAPKNLVVSRVTEDSARLSWAKRPGAFDSFLIQYQESEKVGEAIVLTVPGSERSYDLTGLKPGTEYTVSIYGVDVKYDIDSRPISSNPLSAIFTT | M⁻¹ s⁻¹ | 155000 |
| P282DR9P1359_F5 (designed binder, FN3 domain (Centyrin); purified as His-tagged protein, tag not in the entry) LPAPKNLVVSRVTEDSARLSWTAPDAAFDSFQIAYPEWPPPGEAIVLTVPGSERSYDLTGLKPGTEYFVIIQGVKGGVESWPLSAIFTT | M⁻¹ s⁻¹ | 380000 |
| P282DR9P1359_C5 (designed binder, FN3 domain (Centyrin); purified as His-tagged protein, tag not in the entry) LPAPKNLVVSRVTEDSARLSWTAPDAAFDSFWITYPEWPDPGGEAIVLTVPGSERSYDLTGLKPGTEYFVVIYGVKGGEIYSPLSAIFTT | M⁻¹ s⁻¹ | 300000 |
| P282DR9P1359_F7 (designed binder, FN3 domain (Centyrin); purified as His-tagged protein, tag not in the entry) LPAPKNLVVSRVTEDSARLSWTAPDAAFDSFAIAYPEWPPQGEAIVLTVPGSERSYDLTGLKPGTEYFVVIYGVKGGSYSAPLSAIFTT | M⁻¹ s⁻¹ | 404000 |
| P282ER9P1360_C8 (designed binder, FN3 domain (Centyrin); purified as His-tagged protein, tag not in the entry) LPAPKNLVVSRVTEDSARLSWTAPDAAFDSFGILYYEPVDSGEAITLPVPGSERSYDLTGLKPGTEYWVVITGVKGGAPSTPLGTIFTT | M⁻¹ s⁻¹ | 218000 |
